Assayed system: T1, O9-bN
T1 chain: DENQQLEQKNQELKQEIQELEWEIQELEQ
Assay remarks: two-hybrid library CCNG1;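 note: natural log of median RNA to DNA barcode read ratio; higher means stronger binding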
Quantity measured: interaction score

Some entries whose results are on file:
# Binder, interaction score
records = [
    ("DKIQQLKQKNQELKQEIQELEWKNQELKQ [O16-bN]", -0.976),
    ("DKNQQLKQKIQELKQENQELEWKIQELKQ [O6-bN]", -1.38),
    ("DEIQQLEQKIQELKQENQELEWENQELEQ [O3-bN]", -0.842),
]

[A] DKIQQLKQKNQELKQKIQELKWENQELEQ [O7-bN]
[B] DEIQQLEQENQELEQEIQELEWKNQELKQ [O8-bN]
[C] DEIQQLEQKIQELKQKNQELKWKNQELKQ [O12-bN]
[D] DENQQLEQKNQELKQKIQELKWKIQELKQ [O2-bN]
Order field: interaction score | Direction: descending (largest first) API: response body holds the labels in the requested order. D, C, B, A
